Test system: MCF7 breast
Assay: NCI-60 one-dose screen, 48 h
Details: 10 µM unless noted
This is part of a sample that, as a whole, favours compounds with a hit. Of some 83,000 tested, about 20% had one in any assay. Calls of active or inactive are those of the source. The calls were made as follows: active = growth percent below 10; inactive = the rest.
Result category, one only: active, inactive

Known results for compounds:
compound | cat
COc1c(C2CC(=O)Nc3c2c(C)nn3-c2nc3ccccc3[nH]2)cc2c(c1OC)OCO2 (configuration not stated) | inactive
COc1ccc(/C=C/c2c(C(=O)/C=C/c3ccc(Cl)cc3)c(C)nc3ccccc23)cc1 | inactive
S=C(c1cccs1)N1CCN(c2cccc(Cl)c2)CC1 | inactive

For this compound, state the assay outcome: "COc1cc(/C=C/c2ccccc2)cc(OC)c1" inactive

For this compound, state the assay outcome: "N#Cc1c(-c2ccc(Cl)cc2)nc(NCCO)[nH]c1=O" inactive

For this compound, state the assay outcome: "O=C1c2cccc3cccc(c23)C(=O)N1N1C(=O)c2cccc3c(NC4CCCCC4)ccc(c23)C1=O" inactive

For this compound, state the assay outcome: NC1=NC(c2cccc(Br)c2)c2sc3ccc(Cl)cc3c2N1 (configuration not stated) inactive

For this compound, state the assay outcome: "O=C(Nc1ccc(Cl)cc1F)c1ccccc1O" inactive

For this compound, state the assay outcome: "CN(C)c1ccc2nc3ccc(=[N+](C)C)c([N+](=O)[O-])c-3sc2c1" active

For this compound, state the assay outcome: "C=CCNc1ccc2c3c(cccc13)C(=O)N(N1C(=O)c3cccc4cccc(c34)C1=O)C2=O" inactive

For this compound, state the assay outcome: "COc1ccc2c(c1)nc(NNC(=O)c1cnccn1)c1cccn12" inactive

For this compound, state the assay outcome: "COc1cc2cc(Oc3ccc(NC(=O)Nc4ccc(F)c(C(F)(F)F)c4)cc3)c(C)nc2cc1OCCN1CCOCC1" active

For this compound, state the assay outcome: "Cc1cccc(NCc2cn(-c3ccc(C(=O)O)cc3)nc2-c2ccc(C(=O)O)cc2)n1" inactive

For this compound, state the assay outcome: "CCCCNC(=O)Oc1ccc(/C(=C(\C)c2ccc(Cl)cc2)c2ccc(OCCN(CC)CC)cc2)cc1" inactive

For this compound, state the assay outcome: "Cc1ccc2nc(NC(=O)CSc3nc(Cl)c(C#N)c(-c4ccccc4)n3)sc2c1" inactive

For this compound, state the assay outcome: "Cc1[nH]c(C(=O)Nc2ccc(C(=O)NCCN)cc2OC(C)C)c(Cl)c1Cl" active

For this compound, state the assay outcome: "O=c1cc(SCc2ccccc2)nc[nH]1" inactive

For this compound, state the assay outcome: "c1ccc2c(-c3nc(-c4c[nH]c5ccncc45)cs3)c[nH]c2c1" inactive

For this compound, state the assay outcome: "O=C(Nc1ccc(Br)cc1F)c1cc(Br)ccc1O" active
